assay_system: DPP-4 (Mus musculus)
Construct: Blood sample was processed to obtain plasma; from tissue; host or cells: plasma of male ICR mice
Sequence (P28843 37-760 limits assumed): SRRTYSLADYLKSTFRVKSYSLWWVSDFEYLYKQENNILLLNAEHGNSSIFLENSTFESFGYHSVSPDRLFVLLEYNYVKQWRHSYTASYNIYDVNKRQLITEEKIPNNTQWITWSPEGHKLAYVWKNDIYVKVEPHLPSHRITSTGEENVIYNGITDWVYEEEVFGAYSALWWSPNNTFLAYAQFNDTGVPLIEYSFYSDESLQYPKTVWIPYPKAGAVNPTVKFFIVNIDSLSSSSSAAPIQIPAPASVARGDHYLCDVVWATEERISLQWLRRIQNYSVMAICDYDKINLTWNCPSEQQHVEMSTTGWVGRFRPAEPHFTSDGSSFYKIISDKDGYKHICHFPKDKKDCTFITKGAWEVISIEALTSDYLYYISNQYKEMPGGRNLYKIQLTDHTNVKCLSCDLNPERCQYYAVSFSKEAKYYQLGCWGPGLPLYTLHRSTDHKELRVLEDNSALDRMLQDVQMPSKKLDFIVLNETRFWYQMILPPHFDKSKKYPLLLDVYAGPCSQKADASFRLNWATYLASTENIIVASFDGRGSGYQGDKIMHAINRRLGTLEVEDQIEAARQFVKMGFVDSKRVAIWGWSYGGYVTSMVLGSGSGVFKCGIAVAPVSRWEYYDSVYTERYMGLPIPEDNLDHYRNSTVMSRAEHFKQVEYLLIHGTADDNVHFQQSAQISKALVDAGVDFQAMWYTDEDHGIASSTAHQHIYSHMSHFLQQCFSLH
protocol_description: Plasma DPP-4 activity in mice after oral dosing
Assay type: in vivo, ICR mice
applied_conditions: Table 4 Test 3, mice plasma, oral 1 mg/kg, 9 h after dosing, read-out: DPP-4 Relative activity %
Give activity at 1 mg/kg for every item shown.
Numbers only, in %.

Example cases with answers are listed next.
molecule: N[C@H]1Cc2c(nc3cc(-c4n[nH]c(=O)o4)ccn23)C[C@@H]1c1cc(F)c(F)cc1F
value_measured: 10.1
--
molecule: Cn1nc(-c2ccn3c4c(nc3c2)C[C@H](c2cc(F)c(F)cc2F)[C@@H](N)C4)oc1=O
value_measured: 6.1
--
molecule: NC(=O)c1ccn2c3c(nc2c1)C[C@H](c1cc(F)c(F)cc1F)[C@@H](N)C3 [Refference 1, reference compound]
value_measured: 42.5

Would you kindly look at the next entry?
Problem: Record lookup: for DPP-4 (Mus musculus), what activity at 1 mg/kg belongs to N[C@H]1Cc2c(nc3cc(-c4nnco4)ccn23)C[C@@H]1c1cc(F)c(F)cc1F ?
Result: 9

---

Exercise: state measured activity at 1 mg/kg for each of the compounds provided.
assay_system: DPP-4 (Mus musculus)
Construct: Blood sample was processed to obtain plasma; from tissue; host or cells: plasma of male ICR mice
protocol_description: Plasma DPP-4 activity in mice after oral dosing
Assay type: in vivo, ICR mice
applied_conditions: Table 4 Test 2, mice plasma, oral 1 mg/kg, 9 h after dosing, read-out: DPP-4 Relative activity %
Give bare numbers, in %.

Known activity at 1 mg/kg results, listed for orientation:
compound: Cc1nnc(-c2ccn3c4c(nc3c2)C[C@H](c2cc(F)c(F)cc2F)[C@@H](N)C4)o1
activity at 1 mg/kg (%): 7.8
--
compound: Cc1nc(-c2ccn3c4c(nc3c2)C[C@H](c2cc(F)c(F)cc2F)[C@@H](N)C4)no1
activity at 1 mg/kg (%): 11.6
--
compound: NC(=O)c1ccn2c3c(nc2c1)C[C@H](c1cc(F)c(F)cc1F)[C@@H](N)C3 [Refference 1, reference compound]
activity at 1 mg/kg (%): 34.5

Please turn your attention to the following entry.
Problem: Find activity at 1 mg/kg (DPP-4 (Mus musculus)) for the entry N[C@H]1Cc2c(nc3cc(-c4ncon4)ccn23)C[C@@H]1c1cc(F)c(F)cc1F
Result: 11.8

---

assay_system: DPP-4 (Mus musculus)
Construct: Blood sample was processed to obtain plasma; from tissue; host or cells: plasma of male ICR mice
protocol_description: Plasma DPP-4 activity in mice after oral dosing
Format: in vivo, ICR mice
applied_conditions: mice plasma, oral 3 mg/kg, 3 h after dosing, read-out: DPP-4 Relative activity %
Procedure: Some of the exemplary compounds were tested in mice to assess inhibition of DPP-4 activity via plasma DPP-4 activity. Male ICR mice (25-30 g) were used for this study. All the mice were fasted at least 3 hours before study. […] Plasma was collected and tested by fluoremetry. […] The fluorescence of the mixture was measured every 3 minutes after mixing (excitation at 380 nm; emission at 460 nm). After 6 times of measurements, a time-fluorescence cure was obtained. […]
measurement_kind: activity at 3 mg/kg (%)
Numbers only, in %.

Reference set, count: 3
smiles_notation: N[C@H]1Cc2c(nc3cc(-c4nnco4)ccn23)C[C@@H]1c1cc(F)c(F)cc1F
measurement_kind: activity at 3 mg/kg
value_measured: 31.2
//
smiles_notation: Cc1nnc(-c2ccn3c4c(nc3c2)C[C@H](c2cc(F)c(F)cc2F)[C@@H](N)C4)o1
measurement_kind: activity at 3 mg/kg
value_measured: 22.6
//
smiles_notation: Cc1nc(-c2ccn3c4c(nc3c2)C[C@H](c2cc(F)c(F)cc2F)[C@@H](N)C4)no1
measurement_kind: activity at 3 mg/kg
value_measured: 20.4

Field: next compound
Problem: Look up activity at 3 mg/kg for this compound: N[C@H]1Cc2c(nc3cc(-c4ncon4)ccn23)C[C@@H]1c1cc(F)c(F)cc1F
Result: 20

---

assay_system: DPP-4 (Mus musculus)
Construct: Blood sample was processed to obtain plasma; from tissue; host or cells: plasma of male ICR mice
protocol_description: Plasma DPP-4 activity in mice after oral dosing
Type: in vivo, ICR mice
applied_conditions: Table 4 Test 2, mice plasma, oral 1 mg/kg, 1 h after dosing, read-out: DPP-4 Relative activity %
measurement_kind: activity at 1 mg/kg (%)
Answers are plain numbers, in %.

compound: NC(=O)c1ccn2c3c(nc2c1)C[C@H](c1cc(F)c(F)cc1F)[C@@H](N)C3 [Refference 1, reference compound]
assay_system: DPP-4 (Mus musculus)
value_measured: 15.5
--
compound: N[C@H]1Cc2c(nc3cc(-c4ncon4)ccn23)C[C@@H]1c1cc(F)c(F)cc1F [Example 3]
assay_system: DPP-4 (Mus musculus)
value_measured: 15
--
compound: Cc1nnc(-c2ccn3c4c(nc3c2)C[C@H](c2cc(F)c(F)cc2F)[C@@H](N)C4)o1 [Example 2]
assay_system: DPP-4 (Mus musculus)
value_measured: 9.4

Problem: What does the data say about its activity at 1 mg/kg? Entry: Cc1nc(-c2ccn3c4c(nc3c2)C[C@H](c2cc(F)c(F)cc2F)[C@@H](N)C4)no1 [Example 4]
Result: 11.5

---

assay_system: DPP-4 (Mus musculus)
Construct: Blood sample was processed to obtain plasma; from tissue; host or cells: plasma of male ICR mice
protocol_description: Plasma DPP-4 activity in mice after oral dosing
Type: in vivo, ICR mice
applied_conditions: mice plasma, oral 3 mg/kg, 2 h after dosing, read-out: DPP-4 Relative activity %
For each entry below, report its activity at 3 mg/kg value.
Answers are plain numbers, in %.

Solved entries (count: 3):
smiles_notation: N[C@H]1Cc2c(nc3cc(-c4nnco4)ccn23)C[C@@H]1c1cc(F)c(F)cc1F
assay_system: DPP-4 (Mus musculus)
measurement_kind: activity at 3 mg/kg
unit_spec: %
value_measured: 34.9
//
smiles_notation: Cc1nnc(-c2ccn3c4c(nc3c2)C[C@H](c2cc(F)c(F)cc2F)[C@@H](N)C4)o1
assay_system: DPP-4 (Mus musculus)
measurement_kind: activity at 3 mg/kg
unit_spec: %
value_measured: 22.6
//
smiles_notation: N[C@H]1Cc2c(nc3cc(-c4ncon4)ccn23)C[C@@H]1c1cc(F)c(F)cc1F
assay_system: DPP-4 (Mus musculus)
measurement_kind: activity at 3 mg/kg
unit_spec: %
value_measured: 15

Okay, next one:
Problem: Short answer please: activity at 3 mg/kg, DPP-4 (Mus musculus), entry Cc1nc(-c2ccn3c4c(nc3c2)C[C@H](c2cc(F)c(F)cc2F)[C@@H](N)C4)no1
Result: 21.7

---

assay_system: DPP-4 (Mus musculus)
Construct: Blood sample was processed to obtain plasma; from tissue; host or cells: plasma of male ICR mice
protocol_description: Plasma DPP-4 activity in mice after oral dosing
Format: in vivo, ICR mice
applied_conditions: Table 4 Test 3, mice plasma, oral 1 mg/kg, 12 h after dosing, read-out: DPP-4 Relative activity %
I'd appreciate it if you could supply activity at 1 mg/kg values for the items below.
Give bare numbers, in %.

Required: activity at 1 mg/kg, one value per compound below.
1. N[C@H]1Cc2c(nc3cc(-c4n[nH]c(=O)o4)ccn23)C[C@@H]1c1cc(F)c(F)cc1F
2. Cn1nc(-c2ccn3c4c(nc3c2)C[C@H](c2cc(F)c(F)cc2F)[C@@H](N)C4)oc1=O
3. NC(=O)c1ccn2c3c(nc2c1)C[C@H](c1cc(F)c(F)cc1F)[C@@H](N)C3 [Refference 1, reference compound]
4. N[C@H]1Cc2c(nc3cc(-c4nnco4)ccn23)C[C@@H]1c1cc(F)c(F)cc1F

Result:
1. 15
2. 8.5
3. 58
4. 8.8

---

assay_system: DPP-4 (Mus musculus)
Construct: Blood sample was processed to obtain plasma; from tissue; host or cells: plasma of male ICR mice
protocol_description: Plasma DPP-4 activity in mice after oral dosing
Assay type: in vivo, ICR mice
applied_conditions: Table 4 Test 3, mice plasma, oral 1 mg/kg, 4 h after dosing, read-out: DPP-4 Relative activity %
measurement_kind: activity at 1 mg/kg (%)
Numbers only, in %.

compound: N[C@H]1Cc2c(nc3cc(-c4nnco4)ccn23)C[C@@H]1c1cc(F)c(F)cc1F
activity at 1 mg/kg [%]: 8.6

Fill in activity at 1 mg/kg for each of the 3 compounds listed.
1. Cn1nc(-c2ccn3c4c(nc3c2)C[C@H](c2cc(F)c(F)cc2F)[C@@H](N)C4)oc1=O
2. NC(=O)c1ccn2c3c(nc2c1)C[C@H](c1cc(F)c(F)cc1F)[C@@H](N)C3 [Refference 1, reference compound]
3. N[C@H]1Cc2c(nc3cc(-c4n[nH]c(=O)o4)ccn23)C[C@@H]1c1cc(F)c(F)cc1F

Result:
7
22
6.4
